Heads up, these compounds all have Ki values measured for hCA II (Homo sapiens, UniProt P00918).
Give the quantity in nM, number only.

The compound COc1ccc(C(=O)/C=C/c2c(-c3ccccc3)nc3sc(SCc4ccccc4)nn23)cc1 [8a] showed Ki equal to 49.3

For this compound ( COc1ccc(C(=O)/C=C/c2c(-c3ccccc3)nc3sc(SCc4ccc(F)cc4)nn23)cc1 [8c] ), measured Ki is 36.1

Recorded result, O=C(/C=C/c1c(-c2ccccc2)nc2sc(SCc3ccc(F)cc3)nn12)c1ccc(Cl)cc1 [8d] , Ki: 39.6

Entry O=C(/C=C/c1c(-c2ccccc2)nc2sc(SCc3ccccc3)nn12)c1ccc(Cl)cc1 [8b] , Ki reported as 52.5

* * *

target: BChE (Equus caballus); construct: BChE (C1057-1KU), extracted from equine serum; assay: biochemical; conditions: Table 2
Sequence (P81908 whole entry): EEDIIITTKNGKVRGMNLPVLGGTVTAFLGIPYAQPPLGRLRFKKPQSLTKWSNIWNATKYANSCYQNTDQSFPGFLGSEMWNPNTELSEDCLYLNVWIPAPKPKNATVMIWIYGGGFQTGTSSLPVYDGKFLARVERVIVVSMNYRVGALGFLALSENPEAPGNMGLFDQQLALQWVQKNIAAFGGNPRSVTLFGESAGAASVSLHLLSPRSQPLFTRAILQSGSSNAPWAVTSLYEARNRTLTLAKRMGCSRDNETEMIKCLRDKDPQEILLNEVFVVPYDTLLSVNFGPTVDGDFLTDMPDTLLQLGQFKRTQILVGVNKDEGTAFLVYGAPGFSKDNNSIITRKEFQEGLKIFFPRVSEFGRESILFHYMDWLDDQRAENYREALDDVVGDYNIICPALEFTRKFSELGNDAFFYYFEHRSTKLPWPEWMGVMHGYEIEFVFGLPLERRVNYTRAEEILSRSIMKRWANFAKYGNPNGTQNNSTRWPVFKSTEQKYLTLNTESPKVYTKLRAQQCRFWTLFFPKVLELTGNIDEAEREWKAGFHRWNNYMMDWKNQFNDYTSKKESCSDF
metric name: IC50

Query `O=C(/C=C/c1c(-c2ccccc2)nc2sc(SCc3ccc(F)cc3)nn12)c1ccc(Cl)cc1` yields IC50 of 1.98 nM

The compound `O=C(/C=C/c1c(-c2ccccc2)nc2sc(SCc3ccccc3)nn12)c1ccc(Cl)cc1` showed IC50 equal to 1.95 nM

So for `COc1ccc(C(=O)/C=C/c2c(-c3ccccc3)nc3sc(SCc4ccc(F)cc4)nn23)cc1` , the logged IC50 turned out to be 2.03 nM

`COc1ccc(C(=O)/C=C/c2c(-c3ccccc3)nc3sc(SCc4ccccc4)nn23)cc1` yielded IC50 of 1.37 nM

* * *

Hi! I'm sharing some IC50 results obtained with UniProt P00915.
Sequence (P00915 whole entry): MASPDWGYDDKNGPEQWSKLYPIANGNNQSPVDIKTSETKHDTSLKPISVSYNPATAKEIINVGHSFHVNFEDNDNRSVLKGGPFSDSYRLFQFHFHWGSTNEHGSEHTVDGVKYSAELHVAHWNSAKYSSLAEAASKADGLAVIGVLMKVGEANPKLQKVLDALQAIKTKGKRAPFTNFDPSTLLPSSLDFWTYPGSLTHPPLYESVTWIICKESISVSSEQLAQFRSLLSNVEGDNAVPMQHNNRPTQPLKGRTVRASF
Answer in nM, number only, no unit symbol.

Item: `O=C(/C=C/c1c(-c2ccccc2)nc2sc(SCc3ccc(F)cc3)nn12)c1ccc(Cl)cc1` | IC50: 39.1

Query `O=C(/C=C/c1c(-c2ccccc2)nc2sc(SCc3ccccc3)nn12)c1ccc(Cl)cc1` yields IC50 of 64.4

IC50 reported for this compound `COc1ccc(C(=O)/C=C/c2c(-c3ccccc3)nc3sc(SCc4ccccc4)nn23)cc1` : 73

* * *

target: AChE (Electrophorus electricus, UniProt O42275)
Sequence (O42275 24-633): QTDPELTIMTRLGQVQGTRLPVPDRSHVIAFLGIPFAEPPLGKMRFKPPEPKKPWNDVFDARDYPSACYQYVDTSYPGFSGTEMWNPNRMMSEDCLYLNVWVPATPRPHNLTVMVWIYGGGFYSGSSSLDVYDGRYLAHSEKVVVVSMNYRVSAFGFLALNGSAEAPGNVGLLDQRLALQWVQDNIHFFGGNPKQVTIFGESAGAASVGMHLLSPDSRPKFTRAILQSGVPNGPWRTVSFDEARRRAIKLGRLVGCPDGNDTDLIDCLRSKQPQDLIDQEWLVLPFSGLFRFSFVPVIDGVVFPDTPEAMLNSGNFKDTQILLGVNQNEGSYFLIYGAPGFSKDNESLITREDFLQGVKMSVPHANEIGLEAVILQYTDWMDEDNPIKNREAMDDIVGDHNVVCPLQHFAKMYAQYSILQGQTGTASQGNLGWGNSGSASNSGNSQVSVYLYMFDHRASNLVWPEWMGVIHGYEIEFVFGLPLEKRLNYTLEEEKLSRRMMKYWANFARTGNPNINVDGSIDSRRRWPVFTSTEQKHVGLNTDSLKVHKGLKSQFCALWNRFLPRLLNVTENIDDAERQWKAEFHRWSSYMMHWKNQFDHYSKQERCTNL
metric name: Ki (nM)
Please reply with the bare figure in nM and do not write the unit itself.

The value of Ki measured for the compound O=C(/C=C/c1c(-c2ccccc2)nc2sc(SCc3ccccc3)nn12)c1ccc(Cl)cc1 [8b] turned out to be 6.01

Looking up O=C(/C=C/c1c(-c2ccccc2)nc2sc(SCc3ccc(F)cc3)nn12)c1ccc(Cl)cc1 [8d] , I found its Ki recorded as 7.98

# Ki of COc1ccc(C(=O)/C=C/c2c(-c3ccccc3)nc3sc(SCc4ccc(F)cc4)nn23)cc1 [8c] = 11.3

Input COc1ccc(C(=O)/C=C/c2c(-c3ccccc3)nc3sc(SCc4ccccc4)nn23)cc1 [8a] . Output Ki: 3.86

* * *

metric name: pIC50
Expect pIC50 as a plain number equal to -log10 of the molar concentration.

AChE (Electrophorus electricus) assay, compound COc1ccc(C(=O)/C=C/c2c(-c3ccccc3)nc3sc(SCc4ccccc4)nn23)cc1 [8a] , recorded pIC50 = 8.36

The compound COc1ccc(C(=O)/C=C/c2c(-c3ccccc3)nc3sc(SCc4ccc(F)cc4)nn23)cc1 [8c] , tested on AChE (Electrophorus electricus), showed pIC50 of 7.88

The compound O=C(/C=C/c1c(-c2ccccc2)nc2sc(SCc3ccccc3)nn12)c1ccc(Cl)cc1 [8b] on AChE (Electrophorus electricus): pIC50 was 8.17

pIC50 on AChE (Electrophorus electricus) for O=C(/C=C/c1c(-c2ccccc2)nc2sc(SCc3ccc(F)cc3)nn12)c1ccc(Cl)cc1 [8d] is 8.03
